Kindly supply the reported MFI Fold change (CHO-cTREM2 over CHO-EV) values for the records listed here.
Target: T1, cynomolgus TREM2 (cynomolgus, UniProt A0A2K5UY34 49-260)
T1 construct: also called cynoTREM2; cTREM2
T1 sequence: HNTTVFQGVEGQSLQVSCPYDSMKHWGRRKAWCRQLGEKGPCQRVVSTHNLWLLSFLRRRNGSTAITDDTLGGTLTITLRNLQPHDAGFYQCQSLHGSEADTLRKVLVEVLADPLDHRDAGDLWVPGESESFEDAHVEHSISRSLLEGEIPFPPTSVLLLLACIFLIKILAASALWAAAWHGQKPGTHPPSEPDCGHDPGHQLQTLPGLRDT
Experiment: MFI on CHO cells over-expressing cynoTREM2-DAP12 vs CHO empty vector
Description: Cross-reactivity of anti-TREM2 antibodies to cynomolgus TREM2 (cynoTREM2) was assessed using CHO over-expressing cynoTREM2-DAP12 (Table 22). Benchmark antibodies, AB52 and PN-37012, were examined for comparison.
State the answer as a number, implicitly in fold.

What MFI Fold change (CHO-cTREM2 over CHO-EV) value was documented for this binder, EOS006170 (antibody, V domains shown) VH: QVQLQESGPGLVKPSGTLSLTCAVSGGSISSSNWWSWVRQPPGKGLEWIGEIYHSGSTNYNPSLKSRVTISVDKSKNQFSLKLSSVTAADTAVYYCARDTKYQAGMDVWGQGTTVTVSS VL: DIQMTQSPSSLSASVGDRVTITCQASQDISNYLNWYQQKPGKAPKLLIYDASNLATGVPSRFSGSGSGTDFTFTISSLQPEDIATYYCQQYVVFPTFGGGTKVEIK ?
42.8

Same read-out for EOS006163 (antibody, V domains shown) VH: QVQLVQSGAEVKKPGSSVKVSCKASGGTFAQYAISWVRQAPGQGLEWMGVIIPDSGTANYAQKFQGRVTITADESTSTAYMELSSLRSEDTAVYYCARTQENTIFDIWGQGTMVTVSS VL: EIVLTQSPATLSLSPGERATLSCRASQSVSSYLAWFQQKPGQAPRLLIYDASNRATGIPARFSGSGSGTDFTLTISSLEPEDFAVYYCQQDYEWPITFGGGTKVEIK ?
395

Field entry: EOS006162 (antibody, V domains shown) VH: QVQLVQSGAEVKKPGSSVKVSCKASGGTFSSYAISWVRQAPGQGLEWMGGIIPISGTANYAQKFQGRVTITADESTSTAYMELSSLRSEDTAVYYCARTQEYTLFDSWGQGTMVTVSS VL: EIVLTQSPATLSLSPGERATLSCRASQSVSSYLAWFQQKPGQAPRLLIYDASNRATGIPARFSGSGSGTDFTLTISSLEPEDFAVYYCQQDYHWPITFGGGTKVEIK
393

Try EOS006173 (antibody, V domains shown, also called EOS061730) VH: EVQLVESGGGLVQPGRSLRLSCTASGFTFGDYAMSWFRQAPGKGLEWVGFIGSKAYGGTTEYTASVKGRFTISRDGSKSIAYLQMNSLKTEDTAVYYCARGKRRDYGYWHPAFDVWGQGTMVTVSS VL: DIQMTQSPSSLSASVGDRVTITCQASQDITNYLNWYQQKPGKAPKLLIYDASNLETGVPSRFSGSGSGTDFTFTISSLQPEDIATYYCQEYDQYLTFGGGTKVEIK next.
329

The measured values listed here are drawn from patent US20250282868A1.
